Target: carcinoembryonic antigen (CEA), human purified protein (Sigma) (Homo sapiens, UniProt P06731, biotin (biotinamidohexanoic acid N-hydroxysuccinimide ester) for selection and for the ELISA on streptavidin-coated plates; biotin-free for directly coated plates)
Sequence (P06731 35-685): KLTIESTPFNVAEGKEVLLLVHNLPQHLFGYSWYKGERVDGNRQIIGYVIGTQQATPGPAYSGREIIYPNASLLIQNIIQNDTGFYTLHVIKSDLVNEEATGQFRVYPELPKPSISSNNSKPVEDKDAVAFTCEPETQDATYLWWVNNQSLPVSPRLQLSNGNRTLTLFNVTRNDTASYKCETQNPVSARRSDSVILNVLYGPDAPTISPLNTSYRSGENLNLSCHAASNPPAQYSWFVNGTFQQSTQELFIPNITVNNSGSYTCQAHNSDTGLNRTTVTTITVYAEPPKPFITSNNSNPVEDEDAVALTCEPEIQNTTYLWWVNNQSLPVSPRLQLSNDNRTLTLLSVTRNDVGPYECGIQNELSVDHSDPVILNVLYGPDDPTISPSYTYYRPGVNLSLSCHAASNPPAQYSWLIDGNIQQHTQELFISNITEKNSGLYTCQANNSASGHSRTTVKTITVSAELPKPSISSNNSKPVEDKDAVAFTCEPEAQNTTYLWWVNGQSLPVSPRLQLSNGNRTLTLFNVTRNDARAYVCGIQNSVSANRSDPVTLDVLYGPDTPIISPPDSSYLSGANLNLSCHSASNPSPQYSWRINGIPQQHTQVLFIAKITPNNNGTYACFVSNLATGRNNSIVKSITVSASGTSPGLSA
Metric: binding result

>>> measured_result("E14 (antibody, V domains shown) VH: EVQLAESGGGLVQPGGSLRLSCAASGFTFSSYAMSTVRQAPGKGLEWVSAISGSGGSTYYADSVMGRFTISRDNSKNTLYLQMNSLRAEDTAVYYCAKSNEFLFDYWGQGTLVTVSR VL: SSELTQDPAVSVALGQTVRITCQGDSLRGSYASWHQQKPGQAPVLVIYGKNNRPSGIPDRFSVSSSGNTASLTITGAQAEDEADYYCNSSYAWLPYVVFGGGTKLTVL")
"binds"
